Measured values drawn from patent US12263248B2 for this set.

assay: Particle size and polydispersity index of nanoparticle compositions (Zetasizer Nano ZS); format: physicochemical; conditions: Table 1A; lipid:DSPC:cholesterol:PEG-DMG 50:10:38.5:1.5 mol %
property_measured: Size (nm)
# value in nm; strip the unit string

CCCCCCCCCOC(=O)CCCCCCCN(CCO)CCCCCCCCCOC(=O)C(CCCCCC)CCCCCCCC (stereo not shown) has a reported Size (nm) of 85.6

Size (nm) for `CCCCCCCCCOC(=O)CCCCCCCN(CCCCCCCC(=O)OC(CCCCCCCC)CCCCCCCC)CCOC(C)=O` is 68.5

// sample `CCCCCCCCCOC(=O)CCCCCCCN(CCCCCCCC(=O)OC(CCCCCCCC)CCCCCCCC)CCCNC(=O)N(C)C` , its Size (nm) was 91.5

According to the records, this molecule `CCCCCCCCC(CCCCCCCC)OC(=O)CCCCCCCN(CCO)CCCCCCCC` displays Size (nm) of 120.5

`CCCCCCCCCOC(=O)CCCCCCCN(CCCCCCCC(=O)OC(CCCCCCCC)CCCCCCCC)CCOC` yielded Size (nm) of 111.1

The molecule identified as `CCCCCCCCC(CCCCCCCC)OC(=O)CCCCCCCN(CCO)CCCCCCCC(=O)OC(C)(C)C` registered its Size (nm) at 208.3

Reported Size (nm) ( `CCCCCCCCCOC(=O)CCCCCCCN(CCCCCCCC(=O)OC(CCCCCCCC)CCCCCCCC)CCN1CCOCC1` ) = 78.8
